- tested_target: β-hydroxybutyrate dehydrogenase (Paucimonas lemoignei)
- Sequence (A0A4R3I0R9 entry or part of it): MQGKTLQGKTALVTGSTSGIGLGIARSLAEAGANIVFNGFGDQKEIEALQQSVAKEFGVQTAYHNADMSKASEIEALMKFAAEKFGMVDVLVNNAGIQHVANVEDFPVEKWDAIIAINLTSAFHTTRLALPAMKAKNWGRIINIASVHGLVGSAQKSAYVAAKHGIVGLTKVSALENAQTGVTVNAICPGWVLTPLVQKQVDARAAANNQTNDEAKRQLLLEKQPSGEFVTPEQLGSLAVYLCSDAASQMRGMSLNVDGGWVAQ
- experiment_summary: Metabolic stability using D-β-hydroxybutyrate dehydrogenase (NADH formation, Km/Vmax)
- settings: Pseudomonas lemoignei, pH 7.8

[
  {
    "compound": "C[C@@H](O)CC(=O)O [DBHB, D-β-hydroxybutyric acid, reference compound]",
    "half-life / min": 26
  },
  {
    "compound": "[2H][C@](C)(O)CC(=O)O [Compound 100, (R)-3-Hydroxybutanoic-3-d1 Acid]",
    "half-life / min": 36.4
  }
]

* * *

# half-life annotations
- tested_target: β-hydroxybutyrate dehydrogenase from Pseudomonas lemoignei (Paucimonas lemoignei)
- Sequence (A0A4R3I0R9 entry or part of it): as above
- experiment_summary: Metabolic stability using D-β-hydroxybutyrate dehydrogenase (NADH formation, Km/Vmax)
- settings: b-hydroxybutyrate dehydrogenase, pH 7.8

[
  {
    "compound": "[2H]C([2H])([2H])[C@@]([2H])(O)CC(=O)O [Compound 102, (R)-3-hydroxybutanoic-3,4,4,4-d4 Acid]",
    "tested_target": "β-hydroxybutyrate dehydrogenase from Pseudomonas lemoignei (Paucimonas lemoignei)",
    "half-life, min": 55.7
  },
  {
    "compound": "[2H]C([2H])([2H])[C@@H](O)CC(=O)O [Compound 202, (R)-3-hydroxybutanoic-4,4,4-d3 Acid]",
    "tested_target": "β-hydroxybutyrate dehydrogenase from Pseudomonas lemoignei (Paucimonas lemoignei)",
    "half-life, min": 13.3
  }
]
